Ref: patent US9433683B2

- PROTOCOL_NOTES: Stability of the maleimide moiety of MAL-FMS-NHS in aqueous solutions (GSH/DTNB)
- Assay type: physicochemical
- CONDITIONS_USED: 0.1 M NaHCO3 aqueous solution; 0.1M NaHCO3 pH 8.5, room temperature; read-out: t1/2 of destruction of the maleimide moiety (converted)
OBSERVABLE: half-life at 1 mM (h)

>  <MOLECULE>
O=C(CCN1C(=O)C=CC1=O)Nc1ccc2c(c1)C(COC(=O)ON1C(=O)CCC1=O)c1cc(S(=O)(=O)O)ccc1-2 (stereo not shown)

>  <OBSERVABLE>
half-life at 1 mM

>  <TEST_RESULT>
2.7

$$$$
